Hey, just so you know, these numbers are from patent US20240287172A1.

Target: T1, dog iRhom2 full length wild type, T7-tagged (dog, UniProt Q00M95 1-827)
T1 construct: whole, on cells; on MEF-DKO cells; also called Dog-iR2-FL-WT-T7
T1 sequence: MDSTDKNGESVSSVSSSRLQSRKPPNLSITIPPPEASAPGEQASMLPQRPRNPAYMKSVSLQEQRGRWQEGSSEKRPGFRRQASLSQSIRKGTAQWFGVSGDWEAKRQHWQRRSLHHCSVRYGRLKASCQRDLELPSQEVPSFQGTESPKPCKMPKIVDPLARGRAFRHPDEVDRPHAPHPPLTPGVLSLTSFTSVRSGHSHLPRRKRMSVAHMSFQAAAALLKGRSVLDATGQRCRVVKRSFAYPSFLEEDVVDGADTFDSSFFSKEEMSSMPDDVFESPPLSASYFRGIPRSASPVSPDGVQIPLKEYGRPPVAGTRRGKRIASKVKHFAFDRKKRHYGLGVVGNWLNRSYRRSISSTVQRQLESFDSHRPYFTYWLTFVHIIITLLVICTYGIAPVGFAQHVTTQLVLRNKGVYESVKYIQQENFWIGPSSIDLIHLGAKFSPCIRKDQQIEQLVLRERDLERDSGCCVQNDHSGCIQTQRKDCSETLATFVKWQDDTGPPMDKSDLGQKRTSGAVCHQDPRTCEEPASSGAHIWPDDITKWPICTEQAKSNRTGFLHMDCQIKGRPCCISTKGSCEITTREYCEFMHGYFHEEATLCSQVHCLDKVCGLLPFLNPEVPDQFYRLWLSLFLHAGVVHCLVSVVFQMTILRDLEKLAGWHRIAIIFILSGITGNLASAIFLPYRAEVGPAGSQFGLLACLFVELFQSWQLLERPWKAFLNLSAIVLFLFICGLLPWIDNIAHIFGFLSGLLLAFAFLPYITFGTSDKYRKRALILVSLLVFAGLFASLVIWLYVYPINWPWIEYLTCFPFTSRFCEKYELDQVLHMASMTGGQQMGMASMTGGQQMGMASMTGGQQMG
Test: FACS, MEF-DKO cells; via representative antibody 16
reported_property: binding result

antibody 47 (antibody, V domains shown, mouse IgG, kappa light chain; also called clone #47) VH: QVQLQQSGAELVRPGTSVKVSCKASGYAFTNYLIEWVKQRPGQGLEWIGVINPGSGFTNYNEKFKGKAILNADKSSSTAYMQLISLTSEDSAVYFCARDLKRAMDHWGQGTSVTVSS VL: DIQMTQSPASQSASLGESVTITCLASQTIGTWLAWYQQKPGKSPQLLIHAATSLADGVPSRFSGSGSGTKFSFKISSLQAEDFVSYYCQQIYSSPYTFGGGTKLEIK
binds
antibody 49 (antibody, V domains shown, mouse IgG, kappa light chain; also called clone #49) VH: QVTLKESGPGILQPSQTLSLTCSFSGFSLSTFGMGVGWIRQPSGKGLEWLAHIWWDDDKYYNPALQSRLTVSKDTAKNQVFLKIANVDTADTAIYYCARVGNYGSNYWYFAVWGTGTTVTVSS VL: QIVLTQSPAIMSASPGEKVTMTCSASSSVSYMYWYQQKPGSSPRLLIYDTSNLASGVPVRFSGSGSGTSYSLTISRMEAEDAATYYCQQWNSYPLTFGAGTKLELK
binds
antibody 48 (antibody, V domains shown, mouse IgG, kappa light chain; also called clone #48; purified antibody 48) VH: QVQLQQSGTELVRPGTSVKVSCKASGYAFTNYLIEWVKQRPGQGLEWIGVINPGSGFTKYNEKFKGKATLTADKSSSTVYMHLSSLTSEDSAVYFCARGLYRAMDYWGQGTSVTVSS VL: DIQMTQSPASQSASLGESVTITCLASQTIATWLAWYQQKPGKSPQLLIYGATTLADGVPSRFSGGGSGTKFSFKISSLQAEDFVSYYCQQLYSTPYTFGGGTKLEIK
binds
